Catalogue of growth values
system: HOP-62 NSCLC; assay: NCI-60 one-dose screen, 48 h (100 = growth as untreated, 0 = no growth, -100 = all killed); details: 10 µM unless noted
About 83,000 compounds went through this panel and 20% of them were active in at least one assay; those are over-represented in the sample as a whole.

{"cpdSmiles": "CC[C@]12C=CCN3CC[C@@]4(c5ccc(OC)cc5N(C)[C@H]4[C@@](O)(C(=O)OC)[C@@H]1OC(=O)CCCC[P+](c1ccc(F)cc1)(c1ccc(F)cc1)c1ccc(F)cc1)[C@@H]32", "unitName": "%", "growth": 50.9}
{"cpdSmiles": "COc1ccc(-c2nc3ccc(-c4nnc(SCC(=O)Nc5ccc(/C(C)=N\\O)cc5)o4)cc3[nH]2)cc1", "unitName": "%", "growth": 77}
{"cpdSmiles": "C[C@H](NC(=O)c1ccc2c(-c3ccc(C(F)(F)F)cc3)cccc2c1)c1ccccn1", "unitName": "%", "growth": 77.3}
{"cpdSmiles": "Cc1cccc(-c2ccccc2Oc2ccc3nnc(Cl)n3n2)c1", "unitName": "%", "growth": 114}
{"cpdSmiles": "CCOc1ccccc1NC(=O)N/C(N)=N/c1nc2ccccc2s1", "unitName": "%", "growth": 33.6}
{"cpdSmiles": "CC[C@]12C=CCN3CC[C@]4(C(=C(C(=O)OC)C1)Nc1cc(OC)c([C@@H]5[C@H]6O[C@H]6[C@@]6(CC)CC(C(=O)OC)=C7Nc8cc(O)ccc8[C@@]78CCN5[C@@H]68)cc14)[C@@H]32", "unitName": "%", "growth": 32.2}
{"cpdSmiles": "NC(=Nc1ccc(OCCCCCCCCn2cnnn2)cc1)c1ccccc1", "unitName": "%", "growth": 18.6}
{"cpdSmiles": "CN(C)c1nc(NCCNS(=O)(=O)c2ccc(C(=O)/C=C/c3ccc(F)cc3)cc2)nc(N2CCOCC2)n1", "unitName": "%", "growth": 76.2}
